test system: brain cell types; experiment: In vivo two-photon imaging of mouse cortex after topical cortical administration of fluorophores; details: cell type taking up the compound in vivo (Table 1)

compound	target-or-test-system	Target
O=S(=O)([O-])c1cc(S(=O)(=O)O)ccc1C1=c2cc3c4c(c2Oc2cc(F)c(F)cc21)CCC[N+]=4CCC3 [Compound 8]	brain cell types	Endothelial
O=S(=O)([O-])c1cc(S(=O)(=O)O)ccc1C1=c2cc3c4c(c2Oc2c1ccc(F)c2Cl)CCC[N+]=4CCC3 [Compound 22]	brain cell types	Endothelial
O=S(=O)([O-])c1cc(S(=O)(=O)O)ccc1-c1c2ccc(Br)cc2[o+]c2ccc(-n3cncn3)cc12 [Compound 33]	brain cell types	Endothelial

* * *

system: brain cell types; experiment: In vivo two-photon imaging of mouse cortex after topical cortical administration of fluorophores; conditions: cell type taking up the compound in vivo (Table 1)

molecule	target-or-test-system	Target
O=S(=O)([O-])c1cc(S(=O)(=O)O)ccc1-c1c2ccc(Br)cc2[o+]c2cc(N3CCOCC3)ccc12 [Compound 30]	brain cell types	Endothelial
O=S(=O)([O-])c1cc(S(=O)(=O)O)ccc1-c1c2ccc(Br)cc2[o+]c2ccc(S(=O)(=O)O)cc12 [Compound 32]	brain cell types	Endothelial
O=S(=O)([O-])c1cc(S(=O)(=O)O)ccc1C1=c2cc3c4c(c2Oc2c1ccc(Br)c2F)CCC[N+]=4CCC3 [Compound 21]	brain cell types	Endothelial
O=S(=O)([O-])c1cc(S(=O)(=O)O)ccc1C1=c2cc3c4c(c2Oc2cc(F)ccc21)CCC[N+]=4CCC3 [Compound 2]	brain cell types	Endothelial
O=S(=O)([O-])c1cc(S(=O)(=O)O)ccc1C1=c2cc3c4c(c2Oc2c(Br)cccc21)CCC[N+]=4CCC3 [Compound 5]	brain cell types	Endothelial
Cc1ccc2c(-c3ccc(S(=O)(=O)O)cc3S(=O)(=O)[O-])c3ccc(Br)cc3[o+]c2c1 [Compound 29]	brain cell types	Endothelial
CN(C)c1ccc2c(-c3ccc(S(=O)(=O)O)cc3S(=O)(=O)[O-])c3ccc(N(C)C)cc3[o+]c2c1 [Compound 43]	brain cell types	Endothelial
O=S(=O)([O-])c1cc(S(=O)(=O)O)ccc1-c1c2ccc(Br)cc2[o+]c2ccc(-n3ccnc3)cc12 [Compound 31]	brain cell types	Endothelial
O=S(=O)([O-])c1cc(S(=O)(=O)O)ccc1C1=c2cc3c4c(c2Oc2cc(Cl)ccc21)CCC[N+]=4CCC3 [Compound 3]	brain cell types	Endothelial
CN(C)c1ccc2c(c1)Oc1c3c4c(cc1=C2c1ccc(S(=O)(=O)O)cc1S(=O)(=O)[O-])CCC[N+]=4CCC3 [Compound 36]	brain cell types	Astrocyte
O=S(=O)([O-])c1cc(S(=O)(=O)O)ccc1C1=c2cc3c4c(c2Oc2cc(Br)c(Cl)cc21)CCC[N+]=4CCC3 [Compound 15]	brain cell types	Endothelial
O=[N+]([O-])c1ccc2c(-c3ccc(S(=O)(=O)O)cc3S(=O)(=O)[O-])c3ccc(Br)cc3[o+]c2c1 [Compound 28]	brain cell types	Endothelial
O=S(=O)([O-])c1cc(S(=O)(=O)O)ccc1C1=c2cc3c4c(c2Oc2cc(Br)c(F)cc21)CCC[N+]=4CCC3 [Compound 14]	brain cell types	Endothelial
Cc1ccc2c(-c3ccc(S(=O)(=O)O)cc3S(=O)(=O)[O-])c3cc4c5c(c3[o+]c2c1)CCCN5CCC4 [Compound 40]	brain cell types	Endothelial
O=S(=O)([O-])c1cc(S(=O)(=O)O)ccc1C1=c2cc3c4c(c2Oc2cc(Cl)c(F)cc21)CCC[N+]=4CCC3 [Compound 11]	brain cell types	Endothelial
CCN(CC)c1ccc2c(-c3ccc(S(=O)(=O)O)cc3S(=O)(=O)[O-])c3cc(Br)ccc3[o+]c2c1 [Compound 39]	brain cell types	Endothelial
O=S(=O)([O-])c1cc(S(=O)(=O)O)ccc1C1=c2cc3c4c(c2Oc2cc(I)c(Cl)cc21)CCC[N+]=4CCC3 [Compound 16]	brain cell types	Endothelial
O=S(=O)([O-])c1cc(S(=O)(=O)O)ccc1C1=c2cc3c4c(c2Oc2c1cc1ccccc1c2Br)CCC[N+]=4CCC3 [Compound 45]	brain cell types	Endothelial
O=S(=O)([O-])c1cc(S(=O)(=O)O)ccc1C1=c2cc3c4c(c2Oc2cc(Br)ccc21)CCC[N+]=4CCC3 [Compound 1]	brain cell types	Endothelial
O=S(=O)([O-])c1cc(S(=O)(=O)O)ccc1C1=c2cc3c4c(c2Oc2c(Br)cc(Br)cc21)CCC[N+]=4CCC3 [Compound 7]	brain cell types	Endothelial
O=S(=O)([O-])c1cc(S(=O)(=O)O)ccc1C1=c2cc3c4c(c2Oc2cc(F)c(Br)cc21)CCC[N+]=4CCC3 [Compound 10]	brain cell types	Endothelial
O=C(O)CCc1ccc2c(c1)Oc1c3c4c(cc1=C2c1ccc(S(=O)(=O)O)cc1S(=O)(=O)[O-])CCC[N+]=4CCC3 [Compound 37]	brain cell types	Astrocyte
O=[N+]([O-])c1ccc2c(c1)Oc1c3c4c(cc1=C2c1ccc(S(=O)(=O)O)cc1S(=O)(=O)[O-])CCC[N+]=4CCC3 [Compound 35]	brain cell types	Astrocyte
CN(C)c1ccc2c(-c3ccc(S(=O)(=O)O)cc3S(=O)(=O)[O-])c3ccc(Br)cc3[o+]c2c1 [Compound 42]	brain cell types	Endothelial
CCN(CC)c1ccc2c(-c3ccc(S(=O)(=O)O)cc3S(=O)(=O)[O-])c3ccc(N(CC)CC)cc3[o+]c2c1 [Compound 46]	brain cell types	Endothelial
O=S(=O)([O-])c1cc(S(=O)(=O)O)ccc1C1=c2cc3c4c(c2Oc2cc(I)ccc21)CCC[N+]=4CCC3 [Compound 4]	brain cell types	Endothelial
O=S(=O)([O-])c1cc(S(=O)(=O)O)ccc1C1=c2cc3c4c(c2Oc2cc5ccc(Br)cc5cc21)CCC[N+]=4CCC3 [Compound 44]	brain cell types	Endothelial
O=S(=O)([O-])c1cc(S(=O)(=O)O)ccc1C1=c2cc3c4c(c2Oc2ccc(Br)cc21)CCC[N+]=4CCC3 [Compound 6]	brain cell types	Endothelial
